- System: 454973-116-R2-J3-PDC complex spheroid viability
- TEST METHOD NOTES: Anticancer human tumor 454973-116-R2-J3-PDC patient-derived pancreatic carcinoma cell line growth inhibition [POLQ]; active = viability on the fitted dose curve at most 10% of control; inactive = the rest
- CONDITION SUMMARY: second compound 3.16 µM; first compound 0.1 µM
Outcome codes: active, inactive

>>> assigned_category("COc1cc(C2c3cc4c(cc3C(OC3OC5COC(C)OC5C(O)C3O)C3COC(=O)C23)OCO4)cc(OC)c1O (stereo not given) + Cc1cccc(N(C)C(=O)C2C(O)CCN2c2nc(C)cc(C(F)(F)F)c2C#N)c1")
"inactive"
>>> assigned_category("CC[C@@]1(O)C(=O)OCc2c1cc1n(c2=O)Cc2cc3c(CN(C)C)c(O)ccc3nc2-1 + Cc1cccc(N(C)C(=O)C2C(O)CCN2c2nc(C)cc(C(F)(F)F)c2C#N)c1")
"inactive"
>>> assigned_category("CCCS(=O)(=O)Nc1ccc(F)c(C(=O)c2c[nH]c3ncc(-c4ccc(Cl)cc4)cc23)c1F + Nc1ccc(C#CCN(C(=O)Cc2ncc(C(F)(F)F)cc2C(F)(F)F)c2ccc(F)cc2)nn1")
"inactive"
>>> assigned_category("CCc1c2c(nc3ccc(O)cc13)-c1cc3c(c(=O)n1C2)COC(=O)[C@]3(O)CC + Cc1cccc(N(C)C(=O)C2C(O)CCN2c2nc(C)cc(C(F)(F)F)c2C#N)c1")
"active"
>>> assigned_category("Cn1ncnc1[C@H]1c2n[nH]c(=O)c3cc(F)cc(c23)N[C@@H]1c1ccc(F)cc1 + Nc1ccc(C#CCN(C(=O)Cc2ncc(C(F)(F)F)cc2C(F)(F)F)c2ccc(F)cc2)nn1")
"inactive"

---

- Tested on: 454973-116-R2-J3-PDC complex spheroid viability
- TEST METHOD NOTES: Anticancer human tumor 454973-116-R2-J3-PDC cell line growth inhibition [POLQ];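 note: spheroids exposed to drugs for seven days before measurement; percent viability relative to DMSO vehicle control wells taken as 100%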
- CONDITION SUMMARY: second compound 0.0316 µM; first compound 1 µM; hits give low values
Quick reference: viability, T/C of the listed items.
READOUT TYPE: viability, T/C (%)

>>> endpoint_value("C=CCn1c(=O)c2cnc(Nc3ccc(N4CCN(C)CC4)cc3)nc2n1-c1cccc(C(C)(C)O)n1 + Cc1cccc(N(C)C(=O)C2C(O)CCN2c2nc(C)cc(C(F)(F)F)c2C#N)c1")
9.25
>>> endpoint_value("O=C(Nc1ccc(O)c(NS(=O)(=O)c2ccc(F)cc2)c1)c1ccc(-c2ccccc2)cc1 + Nc1ccc(C#CCN(C(=O)Cc2ncc(C(F)(F)F)cc2C(F)(F)F)c2ccc(F)cc2)nn1")
114
>>> endpoint_value("CCc1cc2c(N3CCc4c(cc(Cn5ccnc5)cc4-c4cn(C)nc4C(F)(F)F)C3=O)ccnc2c(OC)n1 + Cc1cccc(N(C)C(=O)C2C(O)CCN2c2nc(C)cc(C(F)(F)F)c2C#N)c1")
77.8

---

- Test system: 454973-116-R2-J3-PDC complex spheroid viability
- TEST METHOD NOTES: Anticancer human tumor 454973-116-R2-J3-PDC cell line growth inhibition [POLQ];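 note: spheroids exposed to drugs for seven days before measurement; percent viability relative to DMSO vehicle control wells taken as 100%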
- CONDITION SUMMARY: second compound 0.1 µM; first compound 0.0316 µM; hits give low values
Quick reference: viability, T/C of the listed items.
READOUT TYPE: viability, T/C (%)

>>> endpoint_value("CCc1cc2c(N3CCc4c(cc(Cn5ccnc5)cc4-c4cn(C)nc4C(F)(F)F)C3=O)ccnc2c(OC)n1 + Nc1ccc(C#CCN(C(=O)Cc2ncc(C(F)(F)F)cc2C(F)(F)F)c2ccc(F)cc2)nn1")
99
>>> endpoint_value("CCc1c2c(nc3ccc(O)cc13)-c1cc3c(c(=O)n1C2)COC(=O)[C@]3(O)CC + Nc1ccc(C#CCN(C(=O)Cc2ncc(C(F)(F)F)cc2C(F)(F)F)c2ccc(F)cc2)nn1")
6.53
>>> endpoint_value("CCCS(=O)(=O)Nc1ccc(F)c(C(=O)c2c[nH]c3ncc(-c4ccc(Cl)cc4)cc23)c1F + Cc1cccc(N(C)C(=O)C2C(O)CCN2c2nc(C)cc(C(F)(F)F)c2C#N)c1")
105
>>> endpoint_value("CC1COCCN1c1cc(C2(S(C)(=N)=O)CC2)nc(-c2ccnc3[nH]ccc23)n1 (stereo unspecified) + COC1C(OC(N)=O)C(O)C(Oc2ccc3c(O)c(NC(=O)c4ccc(O)c(CC=C(C)C)c4)c(=O)oc3c2C)OC1(C)C")
107
>>> endpoint_value("CCc1cc2c(N3CCc4c(cc(Cn5ccnc5)cc4-c4cn(C)nc4C(F)(F)F)C3=O)cc(C)nc2c(OC)n1 + Nc1ccc(C#CCN(C(=O)Cc2ncc(C(F)(F)F)cc2C(F)(F)F)c2ccc(F)cc2)nn1")
99.1
>>> endpoint_value("Cn1ncnc1[C@H]1c2n[nH]c(=O)c3cc(F)cc(c23)N[C@@H]1c1ccc(F)cc1 + Cc1cccc(N(C)C(=O)C2C(O)CCN2c2nc(C)cc(C(F)(F)F)c2C#N)c1")
94.3
>>> endpoint_value("CC[C@@]1(O)C(=O)OCc2c1cc1n(c2=O)Cc2cc3c(CN(C)C)c(O)ccc3nc2-1 + Nc1ccc(C#CCN(C(=O)Cc2ncc(C(F)(F)F)cc2C(F)(F)F)c2ccc(F)cc2)nn1")
14.2
>>> endpoint_value("CC1COCCN1c1cc(-c2ccnn2C)c2ccnc(-c3ccn[nH]3)c2n1 (stereo unspecified) + Cc1cccc(N(C)C(=O)C2C(O)CCN2c2nc(C)cc(C(F)(F)F)c2C#N)c1")
92.6
>>> endpoint_value("CCc1c2c(nc3ccc(O)cc13)-c1cc3c(c(=O)n1C2)COC(=O)[C@]3(O)CC + COC1C(OC(N)=O)C(O)C(Oc2ccc3c(O)c(NC(=O)c4ccc(O)c(CC=C(C)C)c4)c(=O)oc3c2C)OC1(C)C")
10.5
>>> endpoint_value("CCCS(=O)(=O)Nc1ccc(F)c(C(=O)c2c[nH]c3ncc(-c4ccc(Cl)cc4)cc23)c1F + Nc1ccc(C#CCN(C(=O)Cc2ncc(C(F)(F)F)cc2C(F)(F)F)c2ccc(F)cc2)nn1")
104
>>> endpoint_value("O=c1[nH]cc(F)c(=O)[nH]1 + Cc1cccc(N(C)C(=O)C2C(O)CCN2c2nc(C)cc(C(F)(F)F)c2C#N)c1")
109

---

Quick reference: viability, T/C of the listed items.
- System: 454973-116-R2-J3-PDC complex spheroid viability
- TEST METHOD NOTES: Anticancer human tumor 454973-116-R2-J3-PDC cell line growth inhibition [POLQ];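 note: spheroids exposed to drugs for seven days before measurement; percent viability relative to DMSO vehicle control wells taken as 100%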
- CONDITION SUMMARY: second compound 1 µM; first compound 0.316 µM; hits give low values
READOUT TYPE: viability, T/C (%)

>>> endpoint_value("C#Cc1c(F)ccc2cc(O)cc(-c3ncc4c(N5CC6CCC(C5)N6)nc(OCC56CCCN5CC(F)C6)nc4c3F)c12 (stereo not drawn) + Nc1ccc(C#CCN(C(=O)Cc2ncc(C(F)(F)F)cc2C(F)(F)F)c2ccc(F)cc2)nn1")
29.3
>>> endpoint_value("CNCc1ccc(-c2[nH]c3cc(F)cc4c3c2CCNC4=O)cc1 + Cc1cccc(N(C)C(=O)C2C(O)CCN2c2nc(C)cc(C(F)(F)F)c2C#N)c1")
103
>>> endpoint_value("CCc1cc2c(N3CCc4c(cc(Cn5ccnc5)cc4-c4cn(C)nc4C(F)(F)F)C3=O)ccnc2c(OC)n1 + COC1C(OC(N)=O)C(O)C(Oc2ccc3c(O)c(NC(=O)c4ccc(O)c(CC=C(C)C)c4)c(=O)oc3c2C)OC1(C)C")
99

---

- Test system: 454973-116-R2-J3-PDC complex spheroid viability
- TEST METHOD NOTES: Anticancer human tumor 454973-116-R2-J3-PDC cell line growth inhibition [POLQ];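 note: spheroids exposed to drugs for seven days before measurement; percent viability relative to DMSO vehicle control wells taken as 100%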
- CONDITION SUMMARY: second compound 10 µM; first compound 3.16 µM; hits give low values
READOUT TYPE: viability, T/C

>>> endpoint_value("CCCS(=O)(=O)Nc1ccc(F)c(C(=O)c2c[nH]c3ncc(-c4ccc(Cl)cc4)cc23)c1F + Nc1ccc(C#CCN(C(=O)Cc2ncc(C(F)(F)F)cc2C(F)(F)F)c2ccc(F)cc2)nn1")
"116%"
>>> endpoint_value("CCc1cc2c(N3CCc4c(cc(Cn5ccnc5)cc4-c4cn(C)nc4C(F)(F)F)C3=O)ccnc2c(OC)n1 + Cc1cccc(N(C)C(=O)C2C(O)CCN2c2nc(C)cc(C(F)(F)F)c2C#N)c1")
"70.3%"
>>> endpoint_value("C#Cc1c(F)ccc2cc(O)cc(-c3ncc4c(N5CC6CCC(C5)N6)nc(OCC56CCCN5CC(F)C6)nc4c3F)c12 (stereo not given) + COC1C(OC(N)=O)C(O)C(Oc2ccc3c(O)c(NC(=O)c4ccc(O)c(CC=C(C)C)c4)c(=O)oc3c2C)OC1(C)C")
"26.6%"
>>> endpoint_value("CNCc1ccc(-c2[nH]c3cc(F)cc4c3c2CCNC4=O)cc1 + Cc1cccc(N(C)C(=O)C2C(O)CCN2c2nc(C)cc(C(F)(F)F)c2C#N)c1")
"106%"
>>> endpoint_value("O=c1[nH]cc(F)c(=O)[nH]1 + Nc1ccc(C#CCN(C(=O)Cc2ncc(C(F)(F)F)cc2C(F)(F)F)c2ccc(F)cc2)nn1")
"24.3%"
